Taken from PubChem BioAssay (NCI).

System: MDA-MB-435
Assay: NCI tumour cell line growth inhibition, 48 h
// label = Fulfilled if TGI is not less than 4 µM, otherwise Not fulfilled

1. O=[N+]([O-])c1ccc2c(N=Nc3ccc4ccccc4c3O)c(O)cc(S(=O)(=O)O)c2c1 : Fulfilled
2. COC1C(C)OC(OC2CC(C)(O)Cc3cc4c(c(O)c32)C(=O)c2c(O)cc3c(c2C4=O)OC2OC3(C)C(O)C(N(C)C)C2O)C(OC)C1(C)OC (stereo not given) : Not fulfilled
3. COC1=CC(c2ccc[nH]2)=N/C1=C\c1[nH]c(C)c(C)c1CCC(=O)OCc1ccccc1 : Not fulfilled
4. O=C(NC(Cc1ccccc1)C(=O)CCl)OCc1ccccc1 (stereo not given) : Fulfilled
5. CCOP(=O)(OCC)C(C)(CC)/N=C(\N)NC#N (stereo not given) : Fulfilled
6. O=C1CCc2ccccc2O1 : Fulfilled
7. CC(=O)Nc1ccc(Cc2ccc3[nH]c(=O)cc(C)c3c2)cc1 : Fulfilled
8. CCN(CC)CC(O)c1cc(-c2ccc(Cl)cc2)nc2cc(Cl)ccc12 (stereo not given) : Not fulfilled
9. CCOC(=O)c1cc([N+](=O)[O-])cc([N+](=O)[O-])c1Sc1ncnc2nc[nH]c12 : Fulfilled
10. NCCN(CCN)/[N+]([O-])=N/O : Fulfilled
